Taken from the supplement of paper PMC5762512.

Tested on: RPMI2650
Assay: IC50 cell viability (Alamar Blue, 96 h)
readout name: IC50 cell viability (µM)
I only need the number, in µM, no unit after it.

Lookup: Given CN1CC[C@H](c2c(O)cc(O)c3c(=O)cc(-c4ccccc4Cl)oc23)[C@H](O)C1 , respond with its IC50 cell viability.
Found: 0.14

Lookup: Given Cc1cc(/C=C/c2ccc3cc(N(C)C)ccc3[n+]2C)c(C)n1-c1ccccc1 [Pyrvinium pamoate] , respond with its IC50 cell viability.
Found: 0.421

Lookup: Given O=C(CCCCCCC(=O)Nc1ccccc1)NO , respond with its IC50 cell viability.
Found: 5.84

* * *

System: 14169
Assay: IC50 cell viability (Alamar Blue, 96 h)
readout name: IC50 cell viability

Answered cases to consult:
Lookup: Given C#Cc1cccc(Nc2ncnc3cc(OCCOC)c(OCCOC)cc23)c1 [Erlotinib] , respond with its IC50 cell viability.
Found: > 10000 nM

Lookup: Given Nc1ccn([C@@H]2O[C@H](CO)[C@@H](O)C2(F)F)c(=O)n1 [Gemcitabine] , respond with its IC50 cell viability.
Found: 6.73 nM

Lookup: Given CC[C@@]1([C@@H]2O[C@@H]([C@H]3O[C@@](O)(CO)[C@H](C)C[C@@H]3C)C[C@@H]2C)CC[C@H]([C@]2(C)CC[C@]3(C[C@H](O)[C@@H](C)[C@@H]([C@@H](C)[C@@H](OC)[C@H](C)C(=O)O)O3)O2)O1 [Monensin] , respond with its IC50 cell viability.
Found: 3510 nM

Lookup: Given O=C(CCCCCCC(=O)Nc1ccccc1)NO [Vorinostat] , respond with its IC50 cell viability.
Found: 1220 nM

Lookup: Given CC[C@@]1(O)C(=O)OCc2c1cc1n(c2=O)Cc2cc3c(CN(C)C)c(O)ccc3nc2-1 [Topotecan] , respond with its IC50 cell viability.
Found: 17.7 nM

Lookup: Given CC(=O)O[C@@]12CO[C@@H]1C[C@H](O)[C@@]1(C)C(=O)[C@H](O)C3=C(C)[C@@H](OC(=O)[C@H](O)[C@@H](NC(=O)OC(C)(C)C)c4ccccc4)C[C@@](O)([C@@H](OC(=O)c4ccccc4)[C@H]21)C3(C)C [Docetaxel] , respond with its IC50 cell viability.
Found: < 2.5 nM

More entries:
Lookup: Given CCN(CCCOc1ccc2c(Nc3cc(CC(=O)Nc4cccc(F)c4)[nH]n3)ncnc2c1)CCOP(=O)(O)O [Barasertib] , respond with its IC50 cell viability.
Found: 7.07 nM

* * *

Test system: PER-535
Assay: IC50 cell viability (Alamar Blue, 96 h)
Here, each record is paired with measured IC50 cell viability data.
I only need the number, in nM, no unit after it.

Lookup: Given COc1ccccc1S(=O)(=O)Nc1ccc2c(c1)CN(C)C(=O)N2 , respond with its IC50 cell viability.
Found: 2190

Lookup: Given CC[C@@]1(O)C(=O)OCc2c1cc1n(c2=O)Cc2cc3c(CN(C)C)c(O)ccc3nc2-1 , respond with its IC50 cell viability.
Found: 107

Lookup: Given Cc1cc(/C=C/c2ccc3cc(N(C)C)ccc3[n+]2C)c(C)n1-c1ccccc1 [Pyrvinium pamoate] , respond with its IC50 cell viability.
Found: 260

Lookup: Given CN1CC[C@H](c2c(O)cc(O)c3c(=O)cc(-c4ccccc4Cl)oc23)[C@H](O)C1 , respond with its IC50 cell viability.
Found: 131

Lookup: Given CC[C@]1(O)C[C@H]2CN(CCc3c([nH]c4ccccc34)[C@@](C(=O)OC)(c3cc4c(cc3OC)N(C=O)[C@H]3[C@@](O)(C(=O)OC)[C@H](OC(C)=O)[C@]5(CC)C=CCN6CC[C@]43[C@@H]65)C2)C1 , respond with its IC50 cell viability.
Found: 6.92

Lookup: Given Cc1csc(-c2nnc(Nc3ccc(Oc4ncccc4-c4ccnc(N)n4)cc3)c3ccccc23)c1 , respond with its IC50 cell viability.
Found: 112

Lookup: Given COc1cc2c(cc1-c1c(C)noc1C)ncc1[nH]c(=O)n([C@H](C)c3ccccn3)c12 , respond with its IC50 cell viability.
Found: 1140

Lookup: Given C[C@H]1O[C@@H](O[C@H]2[C@@H](O)C[C@H](O[C@H]3[C@@H](O)C[C@H](O[C@H]4CC[C@@]5(C)[C@H](CC[C@@H]6[C@@H]5C[C@@H](O)[C@]5(C)[C@@H](C7=CC(=O)OC7)CC[C@]65O)C4)O[C@@H]3C)O[C@@H]2C)C[C@H](O)[C@@H]1O , respond with its IC50 cell viability.
Found: 218

Lookup: Given C/C(=C\c1csc(C)n1)[C@@H]1C[C@@H]2O[C@]2(C)CCC[C@H](C)[C@H](O)[C@@H](C)C(=O)C(C)(C)[C@@H](O)CC(=O)O1 , respond with its IC50 cell viability.
Found: 3.27

Lookup: Given O=C1c2c(O)ccc(O)c2C(=O)c2c(NCCNCCO)ccc(NCCNCCO)c21 , respond with its IC50 cell viability.
Found: 10.7

More entries:
Lookup: Given COc1cccc2c1C(=O)c1c(O)c3c(c(O)c1C2=O)C[C@@](O)(C(C)=O)C[C@@H]3O[C@H]1C[C@H](N)[C@H](O)[C@H](C)O1 , respond with its IC50 cell viability.
Found: 218

Lookup: Given Cc1sc2c(c1C)C(c1ccc(Cl)cc1)=N[C@@H](CC(=O)Nc1ccc(O)cc1)c1nnc(C)n1-2 , respond with its IC50 cell viability.
Found: 622

* * *

Here, each record is paired with measured IC50 cell viability data.
Test system: 10326
Assay: IC50 cell viability (Alamar Blue, 96 h)
I only need the number, in nM, no unit after it.

Lookup: State measured IC50 cell viability of the compound CC[C@@]1([C@@H]2O[C@@H]([C@H]3O[C@@](O)(CO)[C@H](C)C[C@@H]3C)C[C@@H]2C)CC[C@H]([C@]2(C)CC[C@]3(C[C@H](O)[C@@H](C)[C@@H]([C@@H](C)[C@@H](OC)[C@H](C)C(=O)O)O3)O2)O1 with 10326.
Found: 817

Lookup: State measured IC50 cell viability of the compound Nc1ccn([C@@H]2O[C@H](CO)[C@@H](O)C2(F)F)c(=O)n1 with 10326.
Found: 14.7

Lookup: State measured IC50 cell viability of the compound Cc1csc(-c2nnc(Nc3ccc(Oc4ncccc4-c4ccnc(N)n4)cc3)c3ccccc23)c1 with 10326.
Found: 3.75

Lookup: State measured IC50 cell viability of the compound COc1cc2c(cc1-c1c(C)noc1C)ncc1[nH]c(=O)n([C@H](C)c3ccccn3)c12 with 10326.
Found: 43.5

Lookup: State measured IC50 cell viability of the compound Cc1sc2c(c1C)C(c1ccc(Cl)cc1)=N[C@@H](CC(=O)Nc1ccc(O)cc1)c1nnc(C)n1-2 with 10326.
Found: 6.97

Lookup: State measured IC50 cell viability of the compound Cc1cc(/C=C/c2ccc3cc(N(C)C)ccc3[n+]2C)c(C)n1-c1ccccc1 [Pyrvinium pamoate] with 10326.
Found: 230

Lookup: State measured IC50 cell viability of the compound O=C(CCCCCCC(=O)Nc1ccccc1)NO with 10326.
Found: 514

Lookup: State measured IC50 cell viability of the compound COc1cc(Nc2ncc3c(n2)-c2ccc(Cl)cc2C(c2c(F)cccc2OC)=NC3)ccc1C(=O)O with 10326.
Found: 149

Lookup: State measured IC50 cell viability of the compound C[C@H]1O[C@@H](O[C@H]2[C@@H](O)C[C@H](O[C@H]3[C@@H](O)C[C@H](O[C@H]4CC[C@@]5(C)[C@H](CC[C@@H]6[C@@H]5C[C@@H](O)[C@]5(C)[C@@H](C7=CC(=O)OC7)CC[C@]65O)C4)O[C@@H]3C)O[C@@H]2C)C[C@H](O)[C@@H]1O with 10326.
Found: 41.5

Lookup: State measured IC50 cell viability of the compound COc1cc2ncnc(Nc3ccc(F)c(Cl)c3)c2cc1OCCCN1CCOCC1 with 10326.
Found: 5890

More entries:
Lookup: State measured IC50 cell viability of the compound COc1ccccc1S(=O)(=O)Nc1ccc2c(c1)CN(C)C(=O)N2 with 10326.
Found: 175

Lookup: State measured IC50 cell viability of the compound CCN(CCCOc1ccc2c(Nc3cc(CC(=O)Nc4cccc(F)c4)[nH]n3)ncnc2c1)CCOP(=O)(O)O with 10326.
Found: 11.7

Lookup: State measured IC50 cell viability of the compound COc1cccc2c1C(=O)c1c(O)c3c(c(O)c1C2=O)C[C@@](O)(C(C)=O)C[C@@H]3O[C@H]1C[C@H](N)[C@H](O)[C@H](C)O1 with 10326.
Found: 42.1

Lookup: State measured IC50 cell viability of the compound CN1CC[C@H](c2c(O)cc(O)c3c(=O)cc(-c4ccccc4Cl)oc23)[C@H](O)C1 with 10326.
Found: 25.4

Lookup: State measured IC50 cell viability of the compound CC[C@@]1(O)C(=O)OCc2c1cc1n(c2=O)Cc2cc3c(CN(C)C)c(O)ccc3nc2-1 with 10326.
Found: 13.3
